target: hSMVT (Homo sapiens, UniProt Q9Y289); test: Radiolabeled competition assay in SMVT-expressing CHO cells; type: cell-based
Sequence (Q9Y289 whole entry): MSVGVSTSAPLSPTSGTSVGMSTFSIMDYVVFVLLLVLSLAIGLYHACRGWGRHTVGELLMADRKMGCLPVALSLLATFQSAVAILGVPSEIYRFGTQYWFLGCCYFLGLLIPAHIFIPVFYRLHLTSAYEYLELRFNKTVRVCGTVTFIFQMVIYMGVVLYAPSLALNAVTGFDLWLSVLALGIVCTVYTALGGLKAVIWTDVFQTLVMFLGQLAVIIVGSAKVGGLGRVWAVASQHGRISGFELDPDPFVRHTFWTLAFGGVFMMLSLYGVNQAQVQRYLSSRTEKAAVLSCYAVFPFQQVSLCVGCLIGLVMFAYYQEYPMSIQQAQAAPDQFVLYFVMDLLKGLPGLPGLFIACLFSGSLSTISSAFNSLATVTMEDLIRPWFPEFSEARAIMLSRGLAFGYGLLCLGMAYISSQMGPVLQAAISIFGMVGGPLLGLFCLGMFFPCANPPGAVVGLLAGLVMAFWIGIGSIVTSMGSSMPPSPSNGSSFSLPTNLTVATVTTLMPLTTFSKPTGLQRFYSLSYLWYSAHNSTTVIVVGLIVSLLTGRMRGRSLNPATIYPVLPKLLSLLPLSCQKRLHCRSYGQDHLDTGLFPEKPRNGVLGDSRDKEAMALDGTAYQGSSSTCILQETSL

{"columns": ["molecule", "IC50 [µM]"],
 "data": [
  ["CC(=O)OC(C)OC(=O)NCC1(CC(=O)O)CCCCC1 (stereo not shown) [Compound IV, gabapentin acetoxyethyl carbamate]", 80]
]}
